test_system: NOV1401; further: test concentration or dose not given here
Sequence (VL, as listed by the source): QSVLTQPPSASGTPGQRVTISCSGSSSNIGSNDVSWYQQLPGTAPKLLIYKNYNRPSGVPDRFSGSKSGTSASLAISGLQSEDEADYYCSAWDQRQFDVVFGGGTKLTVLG
test_summary: cell-based or functional assay
endpoint_name: TGA percentage reversal, NOV1401/anti NOV1401 ratio 1/10 (n/n) (%)

* IDT11 (antibody, human IgG1, kappa, V domains shown, also called anti-NOV1401 IgG IDT11; full length IgG format for IDT1) VH: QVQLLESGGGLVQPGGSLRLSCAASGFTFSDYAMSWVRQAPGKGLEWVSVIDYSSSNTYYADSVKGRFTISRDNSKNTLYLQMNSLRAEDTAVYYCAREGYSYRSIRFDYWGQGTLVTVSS VL: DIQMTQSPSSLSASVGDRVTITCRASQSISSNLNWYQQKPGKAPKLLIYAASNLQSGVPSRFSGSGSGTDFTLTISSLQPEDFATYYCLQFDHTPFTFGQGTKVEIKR | 67
* IDT8 (Fab, V domains shown, Fab; also called anti-NOV1401 Fab IDT8) VH: QVQLVESGGGLVKPGGSLRLSCAASGFTFSSNAMHWVRQAPGKGLEWVGRIKSKTSGGTTDYAAPVKGRFTISRDDSKNTLYLQMNSLKTEDTAVYYCARDHYYYPFAYWGQGTLVTVSS VL: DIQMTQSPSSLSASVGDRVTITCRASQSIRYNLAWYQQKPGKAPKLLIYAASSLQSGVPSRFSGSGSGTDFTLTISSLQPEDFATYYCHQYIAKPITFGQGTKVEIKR | 69
* IDT6 (Fab, V domains shown, Fab with a lambda light chain; also called anti-NOV1401 Fab IDT6) VH: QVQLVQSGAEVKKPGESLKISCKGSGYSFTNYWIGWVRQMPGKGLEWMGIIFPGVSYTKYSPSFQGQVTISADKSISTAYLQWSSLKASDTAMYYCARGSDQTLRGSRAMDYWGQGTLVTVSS VL: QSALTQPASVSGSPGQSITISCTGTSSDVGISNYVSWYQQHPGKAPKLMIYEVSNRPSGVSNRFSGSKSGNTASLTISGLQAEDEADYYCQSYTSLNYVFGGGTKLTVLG | 37
